biological target: Beta-1 adrenergic receptor (Homo sapiens); test: DRUGMATRIX: Adrenergic beta1 radioligand binding (ligand: [125I] Cyanopindolol); format: cell membranes, CHO-K1, Membrane; conditions: cho-k1; Not Active = under 50% inhibition at 10 µM
Sequence (P08588 whole entry): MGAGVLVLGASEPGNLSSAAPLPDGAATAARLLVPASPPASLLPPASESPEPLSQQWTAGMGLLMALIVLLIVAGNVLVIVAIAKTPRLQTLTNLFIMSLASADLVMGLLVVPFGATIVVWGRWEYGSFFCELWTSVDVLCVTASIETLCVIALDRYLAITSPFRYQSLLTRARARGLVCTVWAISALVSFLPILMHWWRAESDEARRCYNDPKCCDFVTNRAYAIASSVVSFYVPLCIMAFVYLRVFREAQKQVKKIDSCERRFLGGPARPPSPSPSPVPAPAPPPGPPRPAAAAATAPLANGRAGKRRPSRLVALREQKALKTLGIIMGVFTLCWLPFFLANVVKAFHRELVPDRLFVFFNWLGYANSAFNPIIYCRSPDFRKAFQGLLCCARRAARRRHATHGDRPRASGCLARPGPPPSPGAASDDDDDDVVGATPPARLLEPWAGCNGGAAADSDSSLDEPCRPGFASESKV
PARAMETER MEASURED: Ki

INSERT INTO results (substance, parameter_measured, recorded_value) VALUES
  ('SODIUM NITROPRUSSIDE', 'Ki', 'Not Active'),
  ('CADMIUM ACETATE', 'Ki', 'Not Active'),
  ('LIPOPOLYSACCHARIDE E. COLI O55:B5', 'Ki', 'Not Active'),
  ('LEAD (II) ACETATE', 'Ki', 'Not Active');

====

biological target: Melanocortin receptor 5 (Homo sapiens); type: cell membranes, HEK293, Membrane; settings: hek293; also: in other assays of this panel Not Active means under 50% inhibition at 10 µM
Sequence (P33032 whole entry): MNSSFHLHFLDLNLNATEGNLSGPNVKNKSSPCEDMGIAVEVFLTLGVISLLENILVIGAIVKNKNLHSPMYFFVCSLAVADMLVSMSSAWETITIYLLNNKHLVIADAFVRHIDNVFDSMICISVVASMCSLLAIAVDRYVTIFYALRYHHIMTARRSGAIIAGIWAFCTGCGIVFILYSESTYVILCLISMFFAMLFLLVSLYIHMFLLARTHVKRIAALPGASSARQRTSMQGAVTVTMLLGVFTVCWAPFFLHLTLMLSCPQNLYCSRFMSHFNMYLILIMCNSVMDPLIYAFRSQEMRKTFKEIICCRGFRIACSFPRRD
PARAMETER MEASURED: IC50

INSERT INTO assay_data (substance, recorded_value) VALUES
  ('SODIUM NITROPRUSSIDE', 'Not Active'),
  ('LIPOPOLYSACCHARIDE E. COLI O55:B5', 'Not Active'),
  ('LEAD (II) ACETATE', 'Not Active'),
  ('CADMIUM ACETATE', 'Not Active');

====

target: Alpha-2C adrenergic receptor (Homo sapiens, UniProt P18825); test: DRUGMATRIX: Adrenergic Alpha-2C radioligand binding (ligand: [3H] MK-912); type: cell membranes, Sf9, Membrane; conditions: read-out: IC50
Sequence (P18825 whole entry): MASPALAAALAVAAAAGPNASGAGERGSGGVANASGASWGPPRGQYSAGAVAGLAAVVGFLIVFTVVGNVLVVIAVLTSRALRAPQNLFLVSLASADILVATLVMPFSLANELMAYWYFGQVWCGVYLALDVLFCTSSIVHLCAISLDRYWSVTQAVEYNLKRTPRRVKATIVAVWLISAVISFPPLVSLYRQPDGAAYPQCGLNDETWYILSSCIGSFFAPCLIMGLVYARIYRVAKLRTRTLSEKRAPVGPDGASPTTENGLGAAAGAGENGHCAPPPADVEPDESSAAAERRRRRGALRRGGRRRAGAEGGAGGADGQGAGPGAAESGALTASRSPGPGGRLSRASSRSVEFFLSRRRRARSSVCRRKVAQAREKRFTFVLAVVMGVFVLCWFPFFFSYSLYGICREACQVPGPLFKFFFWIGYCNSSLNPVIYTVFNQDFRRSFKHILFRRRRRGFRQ
Kindly supply the reported IC50 values for the records listed here.
Please reply with the bare figure in nM and do not write the unit itself.

Qu. Which IC50 reading was recorded for the compound Cc1cc(C(C#N)c2ccc(Cl)cc2)c(Cl)cc1NC(=O)c1cc(I)cc(I)c1O (stereo unspecified) ?
Ans. 7100

Qu. What about this compound? `CN(C)CCCN1c2ccccc2Sc2ccccc21`
Ans. 253

Qu. What about this compound? `O=C(CCCN1CC=C(n2c(=O)[nH]c3ccccc32)CC1)c1ccc(F)cc1`
Ans. 1760

Qu. What about this compound? `CC(C)[C@H]1C(=O)N2CCC[C@H]2[C@]2(O)O[C@](NC(=O)[C@@H]3C=C4c5cccc6[nH]cc(c56)C[C@H]4N(C)C3)(C(C)C)C(=O)N12`
Ans. 17

Qu. What about this compound? CC(C)[C@@]1(NC(=O)[C@@H]2C[C@@H]3c4cccc5[nH]cc(c45)C[C@H]3N(C)C2)O[C@@]2(O)[C@@H]3CCCN3C(=O)[C@H](Cc3ccccc3)N2C1=O.CS(=O)(=O)O [DIHYDROERGOCRISTINE MESYLATE]
Ans. 8.65

Qu. What about this compound? CC(C)N1CCN(c2ccc(OCC3COC(Cn4cncn4)(c4ccc(Cl)cc4Cl)O3)cc2)CC1 (stereo unspecified)
Ans. 418

====

biological target: Angiotensin-converting enzyme (Oryctolagus cuniculus); type: tissue-based, Lung;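 also: enzymatic inhibition of angiotensin-converting enzyme measured with FAPGG as the substrate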; also: in other assays of this panel Not Active means under 50% inhibition at 10 µM
Sequence (P12822 whole entry): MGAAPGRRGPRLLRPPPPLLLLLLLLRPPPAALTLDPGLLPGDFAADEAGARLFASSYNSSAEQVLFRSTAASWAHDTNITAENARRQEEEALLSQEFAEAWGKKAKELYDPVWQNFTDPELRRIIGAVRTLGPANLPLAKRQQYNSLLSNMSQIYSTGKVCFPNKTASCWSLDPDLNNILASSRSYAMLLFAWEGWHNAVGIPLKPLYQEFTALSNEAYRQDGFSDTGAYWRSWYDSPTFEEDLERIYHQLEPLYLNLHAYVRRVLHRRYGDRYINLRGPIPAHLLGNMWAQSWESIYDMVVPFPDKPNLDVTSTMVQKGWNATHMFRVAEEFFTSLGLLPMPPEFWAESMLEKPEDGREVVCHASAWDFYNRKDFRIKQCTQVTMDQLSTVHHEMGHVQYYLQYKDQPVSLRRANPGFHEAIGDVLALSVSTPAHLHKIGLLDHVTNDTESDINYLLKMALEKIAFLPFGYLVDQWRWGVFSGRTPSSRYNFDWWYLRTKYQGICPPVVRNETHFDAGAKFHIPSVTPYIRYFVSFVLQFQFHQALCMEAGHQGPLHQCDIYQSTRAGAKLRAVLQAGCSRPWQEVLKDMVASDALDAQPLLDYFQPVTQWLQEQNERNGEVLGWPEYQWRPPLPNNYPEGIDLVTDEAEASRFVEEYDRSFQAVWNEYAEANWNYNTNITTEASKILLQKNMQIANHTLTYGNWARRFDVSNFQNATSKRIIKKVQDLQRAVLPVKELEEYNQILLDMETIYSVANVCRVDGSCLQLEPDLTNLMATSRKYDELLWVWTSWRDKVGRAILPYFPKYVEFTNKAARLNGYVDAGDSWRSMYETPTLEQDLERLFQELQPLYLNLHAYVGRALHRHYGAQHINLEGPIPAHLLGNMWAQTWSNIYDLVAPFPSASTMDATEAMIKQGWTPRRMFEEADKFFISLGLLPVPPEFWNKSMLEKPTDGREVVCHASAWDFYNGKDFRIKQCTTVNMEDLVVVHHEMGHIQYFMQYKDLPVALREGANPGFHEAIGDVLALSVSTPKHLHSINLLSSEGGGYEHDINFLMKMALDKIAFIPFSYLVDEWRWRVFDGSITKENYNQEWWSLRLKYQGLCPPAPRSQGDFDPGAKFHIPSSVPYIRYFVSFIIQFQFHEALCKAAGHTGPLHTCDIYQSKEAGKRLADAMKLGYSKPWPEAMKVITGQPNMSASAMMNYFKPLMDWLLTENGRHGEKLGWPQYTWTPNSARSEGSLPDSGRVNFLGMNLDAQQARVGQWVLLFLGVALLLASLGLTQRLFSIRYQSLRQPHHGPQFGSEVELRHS
PARAMETER MEASURED: Ki

INSERT INTO measurements (substance, study_target, recorded_value) VALUES
  ('SODIUM NITROPRUSSIDE', 'Angiotensin-converting enzyme (Oryctolagus cuniculus)', 'Not Active'),
  ('LIPOPOLYSACCHARIDE E. COLI O55:B5', 'Angiotensin-converting enzyme (Oryctolagus cuniculus)', 'Not Active'),
  ('CADMIUM ACETATE', 'Angiotensin-converting enzyme (Oryctolagus cuniculus)', 'Not Active'),
  ('LEAD (II) ACETATE', 'Angiotensin-converting enzyme (Oryctolagus cuniculus)', 'Not Active');
